- subject.of.test: Botulinum neurotoxin type A (Clostridium botulinum)
- assay.summary: Inhibition of Clostridium botulinum recombinant BoNT/A light chain using N-terminal acetylated, C-terminal aminated SNAP-25 (187-203) as substrate at 20 uM by reverse-phase HPLC analysis
Reported inhibition values for the following compounds.

[
  {
    "molecule": "CC(=O)N[C@@H]1CC[C@@]2(C)[C@@H](C1)C[C@@H](OC(C)=O)[C@@H]1[C@@H]2C[C@H](OC(C)=O)[C@]2(C)[C@@H]([C@H](C)CCCNCCCNc3ccnc4cc(Cl)ccc34)CC[C@@H]12",
    "inhibition": "77.3%"
  },
  {
    "molecule": "CC(=O)O[C@H]1C[C@H]2[C@@H]([C@H](OC(C)=O)C[C@@H]3C[C@@H](NCCCCCCNc4ccnc5cc(Cl)ccc45)CC[C@@]32C)[C@@H]2CC[C@H]([C@H](C)CCCNCCCCNc3ccnc4cc(Cl)ccc34)[C@@]12C",
    "inhibition": "95.4%"
  },
  {
    "molecule": "CC(=O)O[C@@H]1CC[C@@]2(C)[C@@H](C1)C[C@@H](OC(C)=O)[C@@H]1[C@@H]2C[C@H](OC(C)=O)[C@]2(C)[C@@H]([C@H](C)CCCN(C)CCCNc3ccnc4cc(Cl)ccc34)CC[C@@H]12",
    "inhibition": "61.1%"
  },
  {
    "molecule": "CC(=O)O[C@H]1C[C@H]2[C@@H]([C@H](OC(C)=O)C[C@@H]3C[C@H](O)CC[C@@]32C)[C@@H]2CC[C@H]([C@H](C)CCCNCCCCCCNc3ccnc4cc(Cl)ccc34)[C@@]12C",
    "inhibition": "62.9%"
  }
]
